Tested on: HabiOR3
Experiment: Fluo-4 calcium fluorescence assay, HEK293 cells
Assay type: cell-based, Hylobius abietis
Details: agonist; co-expressed with ItypOrco; room temperature
metric.name: EC50 (µM)
Report only the number, with the unit µM understood.

Param item: OCCc1ccccc1 ; param system: HabiOR3; output EC50: 8.54
